Just for reference, the supplement of paper PMC12764529 is where these values come from.

folding stability dG unfold for assorted sequences
test: folding stability dG unfold from chymotrypsin proteolysis; higher = more stable
Write it as a number; the unit kcal/mol goes unstated.

These recorded examples may help you get a feel for the data.
>  <residue.sequence>
SAGGSAGGSANAKIPDGQKVTLDFRVMIMMRMWQFDENGGKMEPRMMMIPIEVEIEIKIPPNASAGGSAGGS [r12_668_TrROS]

>  <recorded.value>
5.06

$$$$
>  <residue.sequence>
MYVVRAKFKIKGEDGSEFEAETVILVEETPEEAKEKVEEKAREIAEELGLSLENITEIEVEVLSLDEELLPS [r1_159_TrMRF]

>  <recorded.value>
2.16

$$$$
>  <residue.sequence>
SAGGSAGGSAGKPKTLEVEMLVLDPETRRLYRVRMEIVLDPEDEGKLTIRLEIEELELPDSAGGSAGGSAGG [r17_241_TrROS_Hall]

>  <recorded.value>
4.5

$$$$
>  <residue.sequence>
SAGGSAGGSAGGWAFMWVIEIEMPPEQMPPEDMKKFPNMRIEIEPYWVPIKIDPENGELRSAGGSAGGSAGG [r17_310_TrROS]

>  <recorded.value>
2.68

$$$$
>  <residue.sequence>
SAGEYKVEEKDGKLYVTYPNGEKKEVEVKPAPPPVVTIKVKSVEELKALAEELNLEITEISEDTVVVKFSAG [r5_328_TrROS_Hall]

>  <recorded.value>
0.0799

$$$$

folding stability dG unfold measured on SAGSPVTLELRVTRPRADAATGAPATATETVTVTLPAAVVAAGLSPEEIARLLEAANPGATVELTAVASAGG [r19_110_JUSTAS] = 0.259

folding stability dG unfold measured on SAGGSAGGSPRIVRVEVDPPPGGLGLARIEVEVVDPSTGVPRLERRTVPVPLGDWKKLLDFLGSAGGSAGGS [r12_691_TrMRF] = 2.25

folding stability dG unfold measured on SAGGSAGGSNKKKKTIMFTIKLDVPEGTPTAEEIADELKELSPNVEIDNIMFTPNEVYIMIKVSAGGSAGGS [r12_454_TrROS] = 1.84

folding stability dG unfold measured on SAGSSETYSFKSPEEAKKKLKEEYGVSVEELPGNRVRINLVLDNKPVVVLIDTSTNLATVVSPEVVERKSAG [r14_402_JUSTAS] = -0.291

folding stability dG unfold measured on SAGGMMEVEEREVEIELELEPGQSIEEALRELLGLEEGDEIVDVEVEVDPETRKVKIRVVILRPPEEESAGG [r13_828_TrROS_Hall] = 2.79

folding stability dG unfold measured on SAGGGSVSITLELEEEEEIEEIVNEKGIPEPLEKRIKKKVTITISPPPTLSSSSSVTGLAEKAIEEKSAGGS [r16_359_JUSTAS] = 0.511

folding stability dG unfold measured on SAGGTATLVIPRIYKGSPEEAARAVQEIADALAALGYDVEVDATVYPVGDYLVVTVTVTVTAPPDSPLASAG [r5_217_TrMRF] = 2.82

folding stability dG unfold measured on SAGRIYVDPNMVVIEIKYPDKPMPIIIPFKDPEDQEMAKELVKKIMRYLRNEGLPVEVEVEVFPPGQPVSAG [r5_823_TrROS] = 2.41

folding stability dG unfold measured on SAGGSAGGSAGVPEGEEYLFTVKVTLTFEPVTVKDENGEEHEIDEVTITVTVTVLVKAEDSAGGSAGGSAGG [r11_907_TrROS_Hall] = 3.24
